B1: CPEB3 Ribozyme (parent)
chain: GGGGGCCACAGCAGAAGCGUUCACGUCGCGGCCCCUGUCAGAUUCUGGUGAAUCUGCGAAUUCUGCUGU

Variants of: B1
TEST_SUMMARY: self-cleavage, relative activity (ratio to wild type); higher = more cleavage; co-transcriptional
EXPERIMENTAL_READOUT: self-cleavage

Example entries and their recorded answers appear below.
GGCGGCCACAGCAGAAGCGUUCACGUCGUGGCCCCUGUCAGAUUCUGGUGAAUCUGCGAAUUCUGCUGU [G3C C29U]: 0.0376
CGGGGCCACAGCAGAAGCGUUCACGUCGCGGCCCCUGUCAGAUUCUGGUGAAUCUGCGAAUUCUGCGGU [G1C U67G]: 0.312

Quick one: self-cleavage of GGGGGCCACAGCAGAAGCGUUCACGUCGCGGCCCCUGUCAGAUUCUGGUGAAUGUGCGAAUUCUCCUGU [C54G G65C] ?
0.503

Quick one: self-cleavage of GGGGGCCACAGCAGAAGCGUUCACGUCGCGGCCCCUAUCAGAUUCUGGUGCAUCUGCGAAUUCUGCUGU [G37A A51C] ?
0.334

Quick one: self-cleavage of GGGGGCCACAGCAGAAGCGUUCACGUCGCGGCCCAUGUCAGAUUCUGGUGUAUCUGCGAAUUCUGCUGU [C35A A51U] ?
0.223
